Consider the following compounds and their measured Survival readings.
- System: L1210
- experimentDescription: Percentage of mice survived after 60 days of treatment with the compound was determined.
- Format: functional, Mus musculus
- Parameters: concentration or dose not given beside the values
Give your result in % as a bare value.

// below: answered compounds
Q. Give the observed Survival of CS(=O)(=O)N(CCCl)N(S(C)(=O)=O)S(C)(=O)=O for L1210.
A. 100

Q. Give the observed Survival of CN(NS(C)(=O)=O)S(C)(=O)=O for L1210.
A. 0

Q. Give the observed Survival of CS(=O)(=O)OCCN(N(S(C)(=O)=O)S(C)(=O)=O)S(C)(=O)=O for L1210.
A. 0

Q. Give the observed Survival of COc1ccc(S(=O)(=O)N(CCCl)N(S(C)(=O)=O)S(C)(=O)=O)cc1 for L1210.
A. 100

Q. Give the observed Survival of CS(=O)(=O)N(N(CCCl)S(=O)(=O)c1ccc(Cl)cc1)S(C)(=O)=O for L1210.
A. 60

Q. Give the observed Survival of CS(=O)(=O)N(CCBr)N(S(C)(=O)=O)S(C)(=O)=O for L1210.
A. 0

Q. Give the observed Survival of CS(=O)(=O)NN(CCCl)S(C)(=O)=O [VPN-4090CE] for L1210.
A. 40

From here, focus on the item given below.
Q. Give the observed Survival of Cc1ccc(S(=O)(=O)N(CCCl)N(S(C)(=O)=O)S(C)(=O)=O)cc1 for L1210.
A. 60

src = ChEMBL document CHEMBL1124882
